target: HLA A2902 (human); test: 125I-probe competition, purified HLA
Note to self: use Condition met only for IC50 readings below 2000 nM; a reading exactly at 2000 nM still gets Condition not met.

Record excerpt, results attached:
- binder: "ELDPVDLLCY (modifications not checked) [HPV45.E7.20]"
  cat: "Condition not met"
- binder: "AFTDLTIVY (modifications not checked) [HPV31.E6.46]"
  cat: "Condition met"
- binder: "VFTFPHAFPF (modifications not checked) [HPV45.E1.578]"
  cat: "Condition met"

# input Criterion: IC50 strictly below 2000 nM. Is it met by GTGCNGWFY (modifications not checked) [HPV18/31.E1.11] ?
# output Condition met

# input Criterion: IC50 strictly below 2000 nM. Is it met by VMDDSEIAY (modifications not checked) [HPV31.E1.349] ?
# output Condition met

# input Criterion: IC50 strictly below 2000 nM. Is it met by VVFIYIPLF (modifications not checked) [HPV31.E5.64] ?
# output Condition met

# input Criterion: IC50 strictly below 2000 nM. Is it met by FYSKVSEFRW (modifications not checked) [HPV31.E6.69] ?
# output Condition met

# input Criterion: IC50 strictly below 2000 nM. Is it met by PYLHSRLVVF (modifications not checked) [HPV31.E1.557] ?
# output Condition not met

# input Criterion: IC50 strictly below 2000 nM. Is it met by GYNTFYIEF (modifications not checked) [HPV18.E2.168] ?
# output Condition met

# input Criterion: IC50 strictly below 2000 nM. Is it met by QVDYYGLYY (modifications not checked) [HPV16.E2.151] ?
# output Condition met

# input Criterion: IC50 strictly below 2000 nM. Is it met by YYMTDAGTW (modifications not checked) [HPV18.E2.142] ?
# output Condition not met

# input Criterion: IC50 strictly below 2000 nM. Is it met by LSQMVQWAY (modifications not checked) [HPV16/31.E1.357] ?
# output Condition met

# input Criterion: IC50 strictly below 2000 nM. Is it met by VYVFCFLLPM (modifications not checked) [HPV18.E5.52] ?
# output Condition not met
